- system_under_test: T1, canine CD20 (canine, UniProt Q3C2E2 1-297)
- T1 construct: Full-length canine CD20 stably expressed on MDCK II (or HEK293) cells for flow cytometry and ADCC; In the CDC assay it is natively expressed on CLBL-1 canine lymphoma cells; also called cCD20; dog CD20
- T1 chain: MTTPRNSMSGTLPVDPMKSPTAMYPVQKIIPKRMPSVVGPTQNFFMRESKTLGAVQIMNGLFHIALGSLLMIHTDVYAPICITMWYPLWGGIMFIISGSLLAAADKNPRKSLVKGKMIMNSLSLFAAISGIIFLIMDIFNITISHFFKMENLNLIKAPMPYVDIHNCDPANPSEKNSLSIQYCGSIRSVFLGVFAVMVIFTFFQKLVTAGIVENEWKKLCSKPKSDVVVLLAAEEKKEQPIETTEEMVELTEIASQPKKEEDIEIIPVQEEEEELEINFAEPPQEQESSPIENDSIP
- assay_info: flow cytometry on cCD20-expressing MDCK II cells, 10 ug/ml antibody, FITC anti-canine IgG (FIG. 3A)

| binder | binding result |
| --- | --- |
| PMX005 mAb (antibody, V domains shown, Fully canine mAb with dog IGGB and dog IGLC5 constant regions; Expressed in CHO cells) VH: EVQLVESGGDLVKPGGSLRLSCVASGFTFSRYHMSWVRQAPGKGLQWVAYINSGGSDSDYADAVKGRFTISRDNAKNTLYLQMNSLRAEDTAVYYCTSLDYWGQGTLVTVSS VL: SYVLTQLPSKNVTLKQPAHITCGGDNIGSKSVHWYQQKLGQAPVLIIYYDSSRPTGIPERFSGANSGNTATLTISGALAEDEADYYCQVWDRSGNVFGGGTHLTVLG | binds |
| PMX001 mAb (antibody, V domains shown, Fully canine mAb; Expressed in CHO cells) VH: EVQLVESGGDLVKPGGSLRLSCVASGFTFSSYHMSWVRQAPGKGLQWVAYINSGGSSTTYADAVKGRFTISRDNAKKTLYLQMNSLRAEDTAVYYCSTFDYWGQGTLVTVSS VL: SYVLTQLPSRNVTLKQPAHITCGGDNIGSKSVHWYQQKLGQAPVLIIYYDTRRPTGIPERFSGANSGNTATLTISGALAEDEADYYCQVWDSSGNVFGGGTHLTVLG | binds |
| PMX004 mAb (antibody, V domains shown, Fully canine mAb with dog IGGB and dog IGLC5 constant regions; Expressed in CHO cells) VH: EVQLVESGGELVKPGGSLRVSCVASGITFSRYHMSWVRQAPGKGLQWVAFINTDRSSPKYADSVKGRFTISRDNAKNTLYLQMNSLRAEDTAIYYCTSFDYWGQGTLVTVSS VL: SYVLTQLPSKNVTLKQPAHITCGGDNIGSKSVHWYQQKLGQAPVLIIYYDSSRPTGIPERFSGANSGNTATLTISGALAEDEADYYCQVWDSSANVFGGGTHLTVLG | binds |
